B1: Pre-mRNA-processing factor 40 homolog B, residues 274 to 332; numbered along this chain, Q6NWY9 (parent)
chain: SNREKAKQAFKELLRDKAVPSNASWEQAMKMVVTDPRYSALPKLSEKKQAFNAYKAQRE

- Variants of: B1
- measurement_description: abundance fitness (aPCA) (normalised: wild type 0, dead -1); higher = more abundant; growth selection in yeast, the domain comes from the species named
- measurement_conditions: Homo sapiens
Binary call on abundance fitness: Y from -0.2 upward, N beneath that.

Kindly determine if abundance fitness recorded for E12R is above or exactly -0.2.
N

Identify whether the reported abundance fitness of the following variant is -0.2 or greater: R58D
N

Quick check, abundance fitness >= -0.2? Q8N
N

Item P42V with abundance fitness of -0.2 or above?
N

Given the entry P42N , answer whether its abundance fitness meets or surpasses -0.2.
N

Can M31K be said to have abundance fitness at or above -0.2?
N

Identify whether the reported abundance fitness of the following variant is -0.2 or greater: K30Y
N

Is the recorded value of abundance fitness equal to or greater than -0.2 for this variant? K30I
N

Form field: abundance fitness at least -0.2? Entry: A40C
Y

API: above_or_equal(metric=abundance fitness, cutoff=-0.2) for item K43E
Y

Is abundance fitness for P36C at or above -0.2?
N

Given V33Q , state whether its abundance fitness is at least -0.2.
Y

Does abundance fitness meet or surpass -0.2 for K11A ?
Y

Please indicate if the recorded abundance fitness for R37Q meets or exceeds -0.2.
N

Does the reported abundance fitness for R37L fall at or above the -0.2 mark?
N

Does the variant L44P have recorded abundance fitness that is -0.2 or more?
N

Could you tell me if the measured abundance fitness of R37H reaches -0.2 or more?
N

Given the entry A23I , answer whether its abundance fitness meets or surpasses -0.2.
Y

# check: abundance fitness of F10W is greater than or equal to -0.2
N

Reported abundance fitness reaches at least -0.2 for F10M ?
N

Exam item: decide whether the reported abundance fitness for N52M is at least -0.2.
Y

Could you tell me if the measured abundance fitness of E12T reaches -0.2 or more?
N

Item A6K with abundance fitness of -0.2 or above?
N

Kindly determine if abundance fitness recorded for E46A is above or exactly -0.2.
N

Is abundance fitness at least -0.2? Consider N52K
Y

Is abundance fitness for M31G at or above -0.2?
N

Confirm if abundance fitness reported for the variant S24W is -0.2 or above.
N

The measurements presented in this section are drawn from the Human Domainome abundance scans (Beltran et al. 2025).
